Provenance of the data: patent US9765056B2

# System: RS4;11 leukaemia tumour line
# ASSAY_SUMMARY: In vitro cytotoxicity, Microculture Tetrazolium Assay (MTT)
# Assay type: cell-based
# DETAILS: Homo sapiens; RS4;11 cells, 48 hours exposure
Counter-ions that a name gives are not always drawn.
Classify: YES when IC50 is strictly less than 400 nM; NO when IC50 is not.

compound="CN1CCN(C[C@@H]2Cc3ccccc3CN2C(=O)c2ccc(Br)cc2-n2cc(C(=O)N(c3ccc(O)cc3)c3ccc4[nH]ccc4c3)c3ccccc32)CC1 [Example 48]" label_value=YES
compound="Cc1cc(C(=O)N(c2ccccc2)c2ccc(O)cc2)cn1-c1cc2c(cc1C(=O)N1Cc3ccccc3C[C@H]1CN1CCOCC1)CCC2 [Example 107, hydrochloride]" label_value=YES
compound="COc1ccc(C(=O)N2Cc3ccccc3C[C@H]2CN)c(-n2cc(C(=O)N(c3ccccc3)c3ccc(O)cc3)c3ccccc32)c1 [Example 146]" label_value=YES

Dear colleague, could you confirm whether IC50 of Cc1cc(C(=O)N(c2ccc(O)cc2)c2ccc3[nH]ccc3c2)cn1-c1cc(Br)ccc1C(=O)N1Cc2ccccc2C[C@H]1CN1CCC(F)(F)CC1 [Example 79] falls below 400 nM? Thanks.
YES

Dear colleague, could you confirm whether IC50 of Cc1cc(C(=O)N(c2ccccc2)c2ccc(O)cc2)cn1-c1cc(Br)ccc1C(=O)N1Cc2ccccc2C[C@H]1CN1CCOCC1 [Example 42] falls below 400 nM? Thanks.
YES

Dear colleague, could you confirm whether IC50 of NC[C@@H]1Cc2ccccc2CN1C(=O)c1cc(NC(=O)CSc2ccccc2)ccc1-n1cc(C(=O)N(c2ccccc2)c2ccc(O)cc2)c2ccccc21 [Example 157] falls below 400 nM? Thanks.
NO

Dear colleague, could you confirm whether IC50 of CN1CCN(C[C@@H]2Cc3ccccc3CN2C(=O)c2cc3c(cc2-n2cc(C(=O)N(c4ccc(O)c(F)c4)c4ccc5c(ccn5C)c4)c4ccccc42)OCO3)CC1 [Example 97, hydrochloride] falls below 400 nM? Thanks.
YES

Dear colleague, could you confirm whether IC50 of NC[C@@H]1Cc2ccccc2CN1C(=O)c1ccccc1-n1cc(C(=O)N(c2ccccc2)c2ccc(O)cc2)c2ccccc21 [Example 131] falls below 400 nM? Thanks.
NO

Dear colleague, could you confirm whether IC50 of COc1cc(-n2nc(C(=O)N(c3ccccc3)c3ccccc3)c3ccccc32)c(C(=O)N2Cc3ccccc3C[C@H]2CN)cc1O [Example 135] falls below 400 nM? Thanks.
NO

Dear colleague, could you confirm whether IC50 of CN1CCN(C[C@@H]2Cc3ccccc3CN2C(=O)c2cc3c(cc2-n2cc(C(=O)N(c4ccc(O)cc4)c4ccc(F)c(Cl)c4)c4ccccc42)OCO3)CC1 [Example 58, hydrochloride] falls below 400 nM? Thanks.
YES

Dear colleague, could you confirm whether IC50 of CCCCN(C(=O)c1cn(-c2cc(OC)c(O)cc2C(=O)N2Cc3ccccc3C[C@H]2CN2CCN(C)CC2)c2ccccc12)c1ccccc1 [Example 194, dihydrochloride] falls below 400 nM? Thanks.
NO

Dear colleague, could you confirm whether IC50 of COc1ccc(C(=O)N2Cc3ccccc3C[C@H]2CN)c(-n2nc(C(=O)N(c3ccccc3)c3ccccc3)c3ccccc32)c1 [Example 150] falls below 400 nM? Thanks.
NO

----------
# TESTED_SYSTEM: Bcl-2 protein (histag-Bcl-2, UniProtKB P10415) (Homo sapiens (Human), UniProt P10415)
# Sequence (P10415 whole entry): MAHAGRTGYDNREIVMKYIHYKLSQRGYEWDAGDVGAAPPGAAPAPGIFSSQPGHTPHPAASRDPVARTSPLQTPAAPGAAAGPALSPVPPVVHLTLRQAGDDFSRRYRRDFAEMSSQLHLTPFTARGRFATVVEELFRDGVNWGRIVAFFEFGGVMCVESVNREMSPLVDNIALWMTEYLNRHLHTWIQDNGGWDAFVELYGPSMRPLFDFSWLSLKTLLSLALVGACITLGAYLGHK
# ASSAY_SUMMARY: Inhibition of Bcl-2 by the fluorescence polarisation technique
# Assay type: binding
# DETAILS: fluorescence polarisation test; method A, or method B where underlined (underlining not visible); read-out: IC50 (nM) Bcl-2 FP
Counter-ions that a name gives are not always drawn.
For each record, write down the corresponding IC50.
Give bare numbers, in nM.

Examples from the recorded data:
compound="COc1cc(-n2cc(C(=O)N(c3ccccc3)C3CCCCC3)c3ccccc32)c(C(=O)N2Cc3ccccc3C[C@H]2CN2CCN(C)CC2)cc1O [Example 187, dihydrochloride]" measured_property=IC50 unit_name=nM measured_value=21.6
compound="CC(C)c1ccc(N(C(=O)c2cn(-c3cc4c(cc3C(=O)N3Cc5ccccc5C[C@H]3CN3CCN(C)CC3)OCO4)c3ccccc23)c2ccc(O)c(Cl)c2)cc1 [Example 64, hydrochloride]" measured_property=IC50 unit_name=nM measured_value=296
compound=CN1CCN(C[C@@H]2Cc3ccccc3CN2C(=O)c2cc3c(cc2-n2cc(C(=O)N(c4ccc(O)cc4)c4ccc(O)cc4)c4ccccc42)OCO3)CC1 measured_property=IC50 unit_name=nM measured_value=3.7
compound="CN1CCN(C[C@@H]2Cc3ccccc3CN2C(=O)c2cc(F)c(Cl)cc2-n2cc(C(=O)N(c3ccc(O)cc3)c3ccc4c(ccn4C)c3)c3ccccc32)CC1 [Example 78, hydrochloride]" measured_property=IC50 unit_name=nM measured_value=3.7
compound="CC(C)CC1Oc2cc(C(=O)N3Cc4ccccc4C[C@H]3CN)c(-n3cc(C(=O)N(c4ccccc4)c4ccc(O)cc4)c4ccccc43)cc2O1 (stereo partly drawn)" measured_property=IC50 unit_name=nM measured_value=54.1

Provide each entry's IC50 from the list below.
1. Cc1cc(C(=O)N(c2ccccc2)c2ccc(O)cc2)cn1-c1cccc(Cl)c1C(=O)N1Cc2ccccc2C[C@H]1CN(C)C
2. CN1CCN(C[C@@H]2Cc3ccccc3CN2C(=O)c2cc3c(cc2-n2cc(C(=O)N(c4ccccc4)c4ccc(O)cc4)c4ccccc42)OCCO3)CC1
3. CN(C)C[C@@H]1Cc2ccccc2CN1C(=O)c1ccccc1-n1cc(C(=O)N(c2ccccc2)c2ccc(O)cc2)c2ccccc21

[44.6, 16.8, 71.5]
